Tested on: VanA and VanB gene sequences
Assay Info: HPA for detecting VanA and VanB gene sequences (Example 12)
Type: binding, E. faecalis, E. faecium
Test Parameters: ATCC 51299 (VanB), E. faecalis lysate
Catalogue of Probe Hybridization (in RLU) values
Measured Metric: Probe Hybridization (in RLU)

Primary Sequence	Tested Target	Display Unit	Observed
GAGCTTTGAATATCGCAGCCTAC (AE label linker 11/12, chemistry not fully specified; listed as Enterococcus faecalis) [Van A&B(−)734]	VanA and VanB gene sequences	RLU	5497
CCAAGCACCCGATATACTTTCTTTGCC (DNA, backbone and methylation of C not given here; further chemistry not fully specified; listed as Enterococcus faecalis) [VanB(−)1006]	VanA and VanB gene sequences	RLU	8335
GCTGAGCTTTGAATATCGCAGCC (AE label linker 8/9, chemistry not fully specified; listed as Enterococcus faecium) [VanA(−)792]	VanA and VanB gene sequences	RLU	2983
CCGCAGCTTGCATGGACAAATCACTGGC (DNA, backbone and methylation of C not given here; further chemistry not fully specified; listed as Enterococcus faecalis) [VanB(+)084]	VanA and VanB gene sequences	RLU	7863
CGTTCAGTACAATGCGGCCG (DNA, backbone and methylation of C not given here; further chemistry not fully specified; listed as Enterococcus faecium) [VanA(−)1325]	VanA and VanB gene sequences	RLU	1182
